Reference source for all entries: patent US12091426B2

system tested: HPK1 (Homo sapiens, UniProt Q92918)
Construct: A HiBiT tag was introduced by CRISPR on the N terminus of HPK1 in Jurkat cells; host or cells: Jurkat cells (ATCC TIB-152), monoclonal line with CRISPR knock-in of HiBiT at the endogenous HPK1 locus
Sequence (Q92918 whole entry): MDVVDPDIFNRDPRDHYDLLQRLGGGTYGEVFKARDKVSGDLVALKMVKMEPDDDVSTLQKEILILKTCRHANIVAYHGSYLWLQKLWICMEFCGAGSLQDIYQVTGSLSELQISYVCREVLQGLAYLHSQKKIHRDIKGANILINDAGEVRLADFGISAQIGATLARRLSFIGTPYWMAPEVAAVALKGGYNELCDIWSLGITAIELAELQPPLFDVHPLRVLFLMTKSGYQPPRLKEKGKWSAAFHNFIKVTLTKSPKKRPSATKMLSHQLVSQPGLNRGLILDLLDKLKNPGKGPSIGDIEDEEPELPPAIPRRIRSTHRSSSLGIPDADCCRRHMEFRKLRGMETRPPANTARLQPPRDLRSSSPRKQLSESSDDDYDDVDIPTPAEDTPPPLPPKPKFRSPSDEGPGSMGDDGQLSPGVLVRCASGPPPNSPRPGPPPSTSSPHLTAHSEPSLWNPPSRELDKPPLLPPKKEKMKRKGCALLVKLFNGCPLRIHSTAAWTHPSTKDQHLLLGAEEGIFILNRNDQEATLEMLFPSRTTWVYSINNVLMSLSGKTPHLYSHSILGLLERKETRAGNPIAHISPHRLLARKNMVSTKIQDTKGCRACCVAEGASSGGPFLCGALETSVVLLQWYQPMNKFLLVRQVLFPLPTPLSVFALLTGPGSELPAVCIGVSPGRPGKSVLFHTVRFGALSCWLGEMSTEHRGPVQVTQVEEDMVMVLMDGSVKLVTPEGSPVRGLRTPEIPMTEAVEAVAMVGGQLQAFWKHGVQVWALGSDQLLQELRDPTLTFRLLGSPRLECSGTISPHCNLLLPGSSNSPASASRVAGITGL
experimental details: HPK1 Cellular HiBit Degradation Assay
Type: cell-based
condition: Jurkat, HiBiT HPK1 Jurkat cells, 24 hrs; maximum degradation vs DMSO vehicle control; read-out: Dmax Category
Experimental: HPK1 Cellular HiBit Degradation Assay A HiBiT tag was introduced by CRISPR on the N terminus of HPK1 in Jurkat cells (ATCC® TIB-152) to allow quantitation of HPK1 protein levels in a monoclonal human cell line. […] Cells were incubated for 10 min at room temperature and luminescence was read on an EnVision plate reader (Perkin Elmer, 0.1 sec per well). […] Percent HPK1 remaining per sample was calculated as follows: […]
Quick list: Dmax per entry.

compound	value measured
CC(C)n1cnc2cc(-c3ccc4c(c3)N([C@H]3C[C@@H](N5CCCCC5)C3)C(=O)C43CCN(C(=O)[C@H]4CCN(C(=O)[C@H]5CC[C@@H](Nc6cccc7c6n(C)c(=O)n7C6CCC(=O)NC6=O)CC5)C4)CC3)nc(Nc3ccccc3F)c21 (mixture of isomers)	50 to 70%
CC(C)n1cnc2cc(-c3ccc4c(c3)N([C@H]3C[C@@H](N5CCCCC5)C3)C(=O)C43CCN(C(=O)c4ccc(C(=O)N5CCN(c6ccc7c(c6)C(=O)N(C6CCC(=O)NC6=O)C7=O)CC5)nc4)CC3)nc(Nc3ccccc3F)c21 (mixture of isomers)	70 to 85%

Could you now consider this next compound?
Prompt: Which value of Dmax has been reported for CC(C)n1cnc2cc(-c3ccc4c(c3)N([C@H]3C[C@@H](N5CCCCC5)C3)C(=O)C43CCN(C(=O)[C@@H]4CCCN(C(=O)CC5CCN(c6ccc(C7CCC(=O)NC7=O)cn6)CC5)C4)CC3)nc(NC3CC3)c21 (mixture of isomers) in the records?
Completion: 70 to 85%
